Origin of values: paper PMC4336329

system name: human ether-à-go-go-related gene (hERG) potassium channel (human);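 further: peak tail current of the secondary pulse compared with the same well before compound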
Sequence (Q12809 whole entry, looked up): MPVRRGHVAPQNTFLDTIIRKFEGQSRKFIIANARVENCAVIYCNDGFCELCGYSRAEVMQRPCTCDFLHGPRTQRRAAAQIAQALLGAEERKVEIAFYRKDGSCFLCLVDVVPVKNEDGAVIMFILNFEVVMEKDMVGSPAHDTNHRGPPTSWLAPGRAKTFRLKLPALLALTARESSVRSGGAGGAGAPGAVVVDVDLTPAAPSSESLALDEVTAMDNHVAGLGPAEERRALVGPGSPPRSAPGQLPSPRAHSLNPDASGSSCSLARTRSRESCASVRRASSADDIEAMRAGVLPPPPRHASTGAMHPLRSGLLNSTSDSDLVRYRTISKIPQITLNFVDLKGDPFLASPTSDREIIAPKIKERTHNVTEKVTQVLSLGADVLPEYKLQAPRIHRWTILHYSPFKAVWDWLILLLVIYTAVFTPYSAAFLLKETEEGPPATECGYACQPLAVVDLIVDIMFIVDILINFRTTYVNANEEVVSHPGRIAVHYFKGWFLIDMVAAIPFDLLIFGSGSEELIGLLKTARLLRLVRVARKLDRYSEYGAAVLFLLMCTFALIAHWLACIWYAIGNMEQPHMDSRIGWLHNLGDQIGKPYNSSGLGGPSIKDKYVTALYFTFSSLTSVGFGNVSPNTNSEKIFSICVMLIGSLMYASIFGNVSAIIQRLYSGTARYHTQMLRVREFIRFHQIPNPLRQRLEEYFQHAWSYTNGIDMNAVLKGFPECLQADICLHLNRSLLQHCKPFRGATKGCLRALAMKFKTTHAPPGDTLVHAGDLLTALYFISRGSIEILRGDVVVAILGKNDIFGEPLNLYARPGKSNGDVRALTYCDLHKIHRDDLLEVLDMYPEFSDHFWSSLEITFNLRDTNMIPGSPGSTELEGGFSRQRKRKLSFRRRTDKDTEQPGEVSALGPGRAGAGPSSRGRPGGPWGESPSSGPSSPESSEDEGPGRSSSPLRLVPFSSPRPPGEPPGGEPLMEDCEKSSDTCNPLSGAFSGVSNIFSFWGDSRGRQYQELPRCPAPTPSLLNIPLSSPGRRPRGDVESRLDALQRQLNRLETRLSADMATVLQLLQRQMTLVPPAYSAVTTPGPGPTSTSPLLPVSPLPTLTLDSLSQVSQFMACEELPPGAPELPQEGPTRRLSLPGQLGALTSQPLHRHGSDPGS
protocol text: primary screen, population patch clamp on CHO cells stably expressing hERG; higher = less effect of the substance
Hit rate of the full screen: of about 310,000 compounds, about 14,000 (4.5%) showed an effect of 50% or more. Effects have a minus sign here. Only a selection was taken, and strong results are over-represented in it overall.
measurement type: hERG current change (%, negative = inhibition) at 10uM (%)
Entry rule: numbers only, all in %.

> print(dat)
                                   molecule  value.reported
1   COc1ccc(C/C(O)=C(\C#N)c2nc3ccccc3s2)cc1            11.6
2  CCOC(=O)c1c(CSc2ccccc2)n(C)c2cc(Br)c(OCC(O)CNC(CO)(CO)CO)cc12 (centres unmarked)            2.71
3  O=C(CCC(F)(F)F)N1CCCC(CO)(CCc2ccccc2)C1 (centres unmarked)           -13.5
4  CCOC(=O)C1CCN(C(=O)COC(=O)CSc2ccc([N+](=O)[O-])cc2)CC1           -39.5
5  CC(=O)c1ccc(OCC(=O)N2CCCC(N3CCN(c4ccccc4C)CC3)C2)cc1 (centres unmarked)           -75.2
6  O=S(=O)(c1ccccc1)N1CCN(C(=S)Nc2ccc(F)cc2)CC1           -3.33

State the measured hERG current change (%, negative = inhibition) at 10uM (human ether-à-go-go-related gene (hERG) potassium channel (human)) of `Cc1c2c(nc3ccccc13)CC(C)(C)CC2=O.Cl`
0.994

Retrieve hERG current change (%, negative = inhibition) at 10uM on human ether-à-go-go-related gene (hERG) potassium channel (human); query `O=C(Nc1cc(C(=O)N2CCCC2)ccc1N1CCCC1)C1CC1`
-12.9

Return reported hERG current change (%, negative = inhibition) at 10uM for target or system human ether-à-go-go-related gene (hERG) potassium channel (human), item `Cc1cccc(CN2C(=O)[C@@H]3Cc4c([nH]c5ccccc45)C(C)(C)N3C2=O)c1` .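 Further: peak tail current of the secondary pulse compared with the same well before compound.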
-0.614

State hERG current change (%, negative = inhibition) at 10uM (human ether-à-go-go-related gene (hERG) potassium channel (human)) of `O=C(Nc1cc(C(=O)N2CCCC2)ccc1N1CCCC1)c1ccccc1F` .
-74.6

State the measured hERG current change (%, negative = inhibition) at 10uM (human ether-à-go-go-related gene (hERG) potassium channel (human)) of `CC(=O)Nc1ccc(S(=O)(=O)N2CCC(C(=O)N[C@@H](C)C(=O)NC3CCCC3)CC2)cc1`
35.3

Give the observed hERG current change (%, negative = inhibition) at 10uM of `CCNc1c2c(nc3ccccc13)CC(C)(C)CC2=O.O=C(O)C(=O)O` for human ether-à-go-go-related gene (hERG) potassium channel (human).
-69.9
